biological target: DAT (Rattus norvegicus); experiment: DAT binding, inhibition of [3H]WIN 35,428 binding in rat striatum
Sequence (P23977 whole entry): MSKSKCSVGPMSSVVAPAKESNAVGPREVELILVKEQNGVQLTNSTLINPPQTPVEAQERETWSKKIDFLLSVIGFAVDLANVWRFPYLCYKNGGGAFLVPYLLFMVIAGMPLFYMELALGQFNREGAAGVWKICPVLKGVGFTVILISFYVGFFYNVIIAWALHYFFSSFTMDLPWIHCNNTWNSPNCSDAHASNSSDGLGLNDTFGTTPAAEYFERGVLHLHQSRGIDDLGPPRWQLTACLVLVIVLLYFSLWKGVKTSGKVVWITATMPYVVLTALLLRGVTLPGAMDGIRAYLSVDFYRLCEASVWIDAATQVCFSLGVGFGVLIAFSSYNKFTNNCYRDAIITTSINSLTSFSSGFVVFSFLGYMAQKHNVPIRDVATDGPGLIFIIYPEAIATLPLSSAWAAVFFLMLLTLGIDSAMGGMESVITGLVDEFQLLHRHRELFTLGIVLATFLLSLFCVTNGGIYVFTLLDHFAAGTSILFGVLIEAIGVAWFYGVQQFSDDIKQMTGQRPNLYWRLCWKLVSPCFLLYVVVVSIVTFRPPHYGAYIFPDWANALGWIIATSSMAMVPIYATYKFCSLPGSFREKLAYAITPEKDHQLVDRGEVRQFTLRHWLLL
Quick reference for log10 Ki among some molecules
attribute measured: log10 Ki (log10 of the value in nM)

INSERT INTO results (structure_as_smiles, system, attribute_measured, recorded_value) VALUES
  ('O[C@H](CN1CC[C@H](CCOC(c2ccccc2)c2ccccc2)[C@@H](O)C1)c1ccc(F)cc1', 'DAT (Rattus norvegicus)', 'log10 Ki', 0.42),
  ('O[C@H](CN1CC[C@H](CCOC(c2ccccc2)c2ccccc2)[C@@H](O)C1)c1ccccc1', 'DAT (Rattus norvegicus)', 'log10 Ki', 0.36),
  ('O[C@@H](CN1CC[C@H](CCOC(c2ccccc2)c2ccccc2)[C@@H](O)C1)c1ccc(F)cc1', 'DAT (Rattus norvegicus)', 'log10 Ki', 0.34),
  ('O[C@@H](CN1CC[C@H](CCOC(c2ccccc2)c2ccccc2)[C@@H](O)C1)c1ccccc1', 'DAT (Rattus norvegicus)', 'log10 Ki', 0.83),
  ('O[C@H](CN1CC[C@@H](CCOC(c2ccccc2)c2ccccc2)[C@H](O)C1)c1ccccc1', 'DAT (Rattus norvegicus)', 'log10 Ki', -0.31),
  ('O[C@H](CN1CC[C@@H](CCOC(c2ccccc2)c2ccccc2)[C@H](O)C1)c1ccc(F)cc1', 'DAT (Rattus norvegicus)', 'log10 Ki', 0.41),
  ('O[C@@H]1CN(C[C@H](O)c2ccccc2)CC[C@H]1CCOC(c1ccccc1)c1ccccc1', 'DAT (Rattus norvegicus)', 'log10 Ki', 1.60);

###

Quick reference for Selectivity ratio NET uptake/DAT uptake among some molecules
system: NET; assay: NET uptake, inhibition of [3H]NE uptake in rat hippocampus; format: biochemical; settings: ratio of Ki values
attribute measured: Selectivity ratio NET uptake/DAT uptake

INSERT INTO results (structure_as_smiles, recorded_value) VALUES
  ('O[C@H](CN1CC[C@@H](CCOC(c2ccccc2)c2ccccc2)[C@H](O)C1)c1ccc(F)cc1', 7.0),
  ('O[C@@H](CN1CC[C@H](CCOC(c2ccccc2)c2ccccc2)[C@@H](O)C1)c1ccccc1', 1.2),
  ('O[C@H](CN1CC[C@H](CCOC(c2ccccc2)c2ccccc2)[C@@H](O)C1)c1ccccc1', 17),
  ('O[C@H](CN1CC[C@@H](CCOC(c2ccccc2)c2ccccc2)[C@H](O)C1)c1ccccc1', 110);

###

target: UniProtKB P31652; experiment: SERT uptake, inhibition of [3H]5-HT uptake in rat cerebral cortex; assay type: biochemical; conditions: ratio of Ki values
Sequence (P31652 whole entry): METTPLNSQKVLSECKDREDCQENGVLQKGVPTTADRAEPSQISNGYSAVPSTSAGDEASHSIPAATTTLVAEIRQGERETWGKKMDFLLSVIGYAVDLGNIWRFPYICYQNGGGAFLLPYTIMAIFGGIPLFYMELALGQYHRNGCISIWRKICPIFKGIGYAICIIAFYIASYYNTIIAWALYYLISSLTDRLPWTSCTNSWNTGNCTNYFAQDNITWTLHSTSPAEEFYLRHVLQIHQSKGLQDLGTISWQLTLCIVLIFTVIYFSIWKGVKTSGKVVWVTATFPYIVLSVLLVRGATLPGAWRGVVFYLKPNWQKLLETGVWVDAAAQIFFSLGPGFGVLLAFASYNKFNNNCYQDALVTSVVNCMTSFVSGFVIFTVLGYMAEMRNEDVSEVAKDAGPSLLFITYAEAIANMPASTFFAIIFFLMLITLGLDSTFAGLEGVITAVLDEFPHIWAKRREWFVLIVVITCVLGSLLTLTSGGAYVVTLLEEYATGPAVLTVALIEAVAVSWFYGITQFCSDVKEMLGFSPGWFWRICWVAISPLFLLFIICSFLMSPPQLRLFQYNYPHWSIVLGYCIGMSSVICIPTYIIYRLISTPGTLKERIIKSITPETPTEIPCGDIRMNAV
Decision: Selectivity ratio SERT uptake/DAT uptake compared against 200; not below it gives T, below it gives F.

INSERT INTO results (structure_as_smiles, group_label) VALUES
  ('O[C@H](CN1CC[C@@H](CCOC(c2ccccc2)c2ccccc2)[C@H](O)C1)c1ccccc1', 'T'),
  ('O[C@H](CN1CC[C@@H](CCOC(c2ccccc2)c2ccccc2)[C@H](O)C1)c1ccc(F)cc1', 'T'),
  ('O[C@@H]1CN(C[C@H](O)c2ccccc2)CC[C@H]1CCOC(c1ccccc1)c1ccccc1', 'F'),
  ('O[C@@H](CN1CC[C@H](CCOC(c2ccccc2)c2ccccc2)[C@@H](O)C1)c1ccc(F)cc1', 'T'),
  ('O[C@@H](CN1CC[C@H](CCOC(c2ccccc2)c2ccccc2)[C@@H](O)C1)c1ccccc1', 'F'),
  ('O[C@H](CN1CC[C@H](CCOC(c2ccccc2)c2ccccc2)[C@@H](O)C1)c1ccccc1', 'F'),
  ('O[C@@H]1CN(C[C@H](O)c2ccc(F)cc2)CC[C@H]1CCOC(c1ccccc1)c1ccccc1', 'F'),
  ('O[C@H](CN1CC[C@H](CCOC(c2ccccc2)c2ccccc2)[C@@H](O)C1)c1ccc(F)cc1', 'F');
